- testDetails: Half life in male Wistar rats at 4.3 - 4.9 umol/kg iv dose (11 - 12.2 umol/kg oral)
- Format: ADME, organism-based
- protocolConditions: rat, in vivo
observable: half-life (h)

O=C(O)C[C@@H]1c2ccccc2C[C@H]1NC(=O)c1cc2sc(Cl)c(Cl)c2[nH]1 8
COCC[C@H](C(=O)O)[C@@H]1c2ccccc2C[C@H]1NC(=O)c1cc2sc(Cl)c(Cl)c2[nH]1 7

---

- testDetails: Oral bioavailability in rat at 5 mg/kg oral & 2 mg/kg iv dose
- Type: ADME, organism-based
- protocolConditions: in vivo
observable: bioavailability (%)

O=C(O)CCC[C@@H]1c2ccccc2C[C@H]1NC(=O)c1cc2sc(Cl)c(Cl)c2[nH]1 118
O=C(O)CO[C@@H]1c2ccccc2C[C@H]1NC(=O)c1cc2sc(Cl)c(Cl)c2[nH]1 5
O=C(O)CC[C@@H]1c2ccccc2C[C@H]1NC(=O)c1cc2sc(Cl)c(Cl)c2[nH]1 80
O=C(O)C[C@@H]1c2ccccc2C[C@H]1NC(=O)c1cc2cc(Cl)sc2[nH]1 41
O=C(O)C[C@@H]1c2ccccc2C[C@H]1NC(=O)c1cc2cc(F)ccc2[nH]1 88
O=C(O)C[C@@H]1c2ccccc2C[C@H]1NC(=O)c1cc2sc(Cl)c(Cl)c2[nH]1 65

A. O=C(O)C[C@@H]1c2ccccc2C[C@H]1NC(=O)c1cc2cc(Cl)ccc2[nH]1
B. O=C(O)C[C@@H]1c2ccccc2C[C@H]1NC(=O)c1cc2cc(Cl)ncc2[nH]1
C. O=C(O)CSC[C@@H]1c2ccccc2C[C@H]1NC(=O)c1cc2sc(Cl)c(Cl)c2[nH]1
D. O=C(O)C[C@@H]1c2ccccc2C[C@H]1NC(=O)c1cc2cc(Cl)cc(F)c2[nH]1
Enquiry: # rank_down: sort by bioavailability, max first In plain terms: list the labels in the order you were asked to.
Return: A, D, C, B
